Data provenance: the RNAGym collection of RNA variant scans (doi:10.1002/anie.201605470)

Please go through the items and note down their self-cleavage.
B1: Osa-1-4 twister ribozyme (parent)
chain: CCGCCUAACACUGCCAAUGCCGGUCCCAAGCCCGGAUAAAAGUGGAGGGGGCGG

# Variants of: B1
# experimental protocol: self-cleavage, relative activity (ratio to wild type); higher = more cleavage; co-transcriptional

A36U G45U has a reported self-cleavage of 0.13

`A7C` has a reported self-cleavage of 0.04

A38U C27U has a reported self-cleavage of 0.15

G34U G54A has a reported self-cleavage of 0.39

A46C C20U has a reported self-cleavage of 0.07

C9A G49A has a reported self-cleavage of 0.04

G44U U24C has a reported self-cleavage of 0.15

C26U G51U has a reported self-cleavage of 0.17

G45A G49A has a reported self-cleavage of 0.05

C11G U43G has a reported self-cleavage of 0.05

C11A U18A has a reported self-cleavage of 0.67
